This listing pairs compounds with measured LD50.
assay: in vivo; conditions: rat;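 further: acute toxicity in rats expressed as LD50, determined for both prodrugs and their parent compounds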
Report as a plain number; the unit mg/kg is understood.

Example entries begin here.
{"columns": ["compound", "unit-of-measurement", "LD50"],
 "data": [
  ["CC1=C(CC(=O)O)c2cc(F)ccc2/C1=C\\c1ccc([S+](C)[O-])cc1 (centres unmarked) [Sulindac, sulindac, reference compound]", "mg/kg", 260],
  ["O=C(O)C1CCc2cc(C3CCCCC3)c(Cl)cc21 (centres unmarked) [Clidanac, clidanac]", "mg/kg", 35],
  ["CC(C)Cc1ccc(C(C)C(=O)O)cc1 (centres unmarked) [Ibuprofen, 2-(ρ-isobutylphenyl) propionic acid, reference compound]", "mg/kg", 1500],
  ["COc1ccc2c(c1)c(CC(=O)O)c(C)n2C(=O)c1ccc(Cl)cc1 [Indomethacin, indomethacin]", "mg/kg", 13],
  ["CC(C(=O)O)c1ccc2oc(-c3ccc(Cl)cc3)nc2c1 (centres unmarked) [Benoxaprofen, benoxaprofen]", "mg/kg", 800],
  ["CCc1cccc2c3c([nH]c12)C(CC)(CC(=O)O)OCC3 (centres unmarked) [Etodolac, etodolac]", "mg/kg", 460],
  ["O=C(O)Cc1cn(-c2ccccc2)nc1-c1ccc(Cl)cc1 [Lonazolac, lonazolac, reference compound]", "mg/kg", 1000]
]}

We now examine a further compound.
Sure, the documented LD50 for O=C(O)c1cccnc1Nc1cccc(C(F)(F)F)c1 [Niflumic acid, niflumic acid] is 650

All figures here come from patent US20210353579A1.
